- study.target: T1, N2 peptide (non-muscle myosin neo-epitope N2 12mer sequence)
- T1 construct: also called N2 12-mer peptide
- T1 peptide: LMKNMDPLNDNV
- measurement.description: SPR (BIACORE X100), antibody captured by anti-human Fc, N2 peptide in solution
measured.metric: pKd
Lab note: report pKd as minus log10 of the concentration in molar units, number only.

[[record]]
binder = "H3-21G6 / L1-21G6, human IgG1 N297Q (antibody, V domains shown, also called H3/L1 N297Q) VH: QVQLVQSGAEVKKPGSSVKVSCKASGYTFTSYYMYWVRQAPGQGLEWIGGINPSNGGTNFNEKFKSKATITVDKSTSTAYMELSSLRSEDTAVYYCTRWGYDREWFAYWGQGTLVTVSS VL: DIVMTQSPATLSVSPGERATISCRSSKSLLHSNGNTYLYWFQQKPGQPPKVLIYRMSNLASGVPARFSGSGSGTDFTLTISSVEPEDFATYYCMQHLEYPFTFGGGTKLEIKR"
endpoint_result = 4.70

[[record]]
binder = "H1-21G6 / L2-21G6, wild type human IgG1 (antibody, V domains shown, also called H1/L2) VH: QVQLVQSGAEVVKPGASVKLSCKASGYTFTSYYMYWVKQAPGQGLEWIGGINPSNGGTNFNEKFKSKATLTVDKSASTAYMELSSLRSEDTAVYYCTRWGYDREWFAYWGQGTLVTVSS VL: DIVMTQSPLSLPVTPGEPASISCRSSKSLLHSNGNTYLYWFLQKPGQSPQLLIYRMSNLASGVPDRFSGSGSGTDFTLKISRVEAEDVGVYYCMQHLEYPFTFGQGTKLEIKR"
endpoint_result = 4.77

[[record]]
binder = "H3-21G6 / L2-21G6, wild type human IgG1 (antibody, V domains shown, also called H3/L2) VH: QVQLVQSGAEVKKPGSSVKVSCKASGYTFTSYYMYWVRQAPGQGLEWIGGINPSNGGTNFNEKFKSKATITVDKSTSTAYMELSSLRSEDTAVYYCTRWGYDREWFAYWGQGTLVTVSS VL: DIVMTQSPLSLPVTPGEPASISCRSSKSLLHSNGNTYLYWFLQKPGQSPQLLIYRMSNLASGVPDRFSGSGSGTDFTLKISRVEAEDVGVYYCMQHLEYPFTFGQGTKLEIKR"
endpoint_result = 4.94


Q: // pKd lookup, key: H1-21G6 / L1-21G6, human IgG1 N297Q (antibody, V domains shown, also called H1/L1 N297Q) VH: QVQLVQSGAEVVKPGASVKLSCKASGYTFTSYYMYWVKQAPGQGLEWIGGINPSNGGTNFNEKFKSKATLTVDKSASTAYMELSSLRSEDTAVYYCTRWGYDREWFAYWGQGTLVTVSS VL: DIVMTQSPATLSVSPGERATISCRSSKSLLHSNGNTYLYWFQQKPGQPPKVLIYRMSNLASGVPARFSGSGSGTDFTLTISSVEPEDFATYYCMQHLEYPFTFGGGTKLEIKR
Result: 5.05

Q: // pKd lookup, key: H1-21G6 / L3-21G6, wild type human IgG1 (antibody, V domains shown, also called H1/L3) VH: QVQLVQSGAEVVKPGASVKLSCKASGYTFTSYYMYWVKQAPGQGLEWIGGINPSNGGTNFNEKFKSKATLTVDKSASTAYMELSSLRSEDTAVYYCTRWGYDREWFAYWGQGTLVTVSS VL: DIVMTQTPLSLSYTPGQPASISCRSSKSLLHSNGNTYLYWFLQKPGQSPQLLIYRMSNLASGVPDRFSGSGSGTDFTLKISRVEAEDVGVYYCMQHLEYPFTFGQGTKLEIKR
Result: 4.68
